Biological target: h P2X2/3 (Homo sapiens, UniProt P56373+Q9UBL9)
Construct: host or cells: cells not described; same protocol as the P2X3 assay
Sequence (P56373 whole entry): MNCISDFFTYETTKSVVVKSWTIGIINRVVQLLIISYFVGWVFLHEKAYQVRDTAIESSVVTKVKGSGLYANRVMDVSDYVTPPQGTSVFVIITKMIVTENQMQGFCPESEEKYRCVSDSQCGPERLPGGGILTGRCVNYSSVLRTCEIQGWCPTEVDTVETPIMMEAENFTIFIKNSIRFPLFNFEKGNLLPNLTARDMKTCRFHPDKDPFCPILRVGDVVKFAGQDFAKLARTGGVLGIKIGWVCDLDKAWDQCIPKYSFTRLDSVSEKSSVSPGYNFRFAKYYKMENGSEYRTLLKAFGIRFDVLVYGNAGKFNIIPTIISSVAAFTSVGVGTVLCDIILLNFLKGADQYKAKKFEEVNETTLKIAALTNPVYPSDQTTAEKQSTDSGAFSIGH
Sequence (Q9UBL9 whole entry): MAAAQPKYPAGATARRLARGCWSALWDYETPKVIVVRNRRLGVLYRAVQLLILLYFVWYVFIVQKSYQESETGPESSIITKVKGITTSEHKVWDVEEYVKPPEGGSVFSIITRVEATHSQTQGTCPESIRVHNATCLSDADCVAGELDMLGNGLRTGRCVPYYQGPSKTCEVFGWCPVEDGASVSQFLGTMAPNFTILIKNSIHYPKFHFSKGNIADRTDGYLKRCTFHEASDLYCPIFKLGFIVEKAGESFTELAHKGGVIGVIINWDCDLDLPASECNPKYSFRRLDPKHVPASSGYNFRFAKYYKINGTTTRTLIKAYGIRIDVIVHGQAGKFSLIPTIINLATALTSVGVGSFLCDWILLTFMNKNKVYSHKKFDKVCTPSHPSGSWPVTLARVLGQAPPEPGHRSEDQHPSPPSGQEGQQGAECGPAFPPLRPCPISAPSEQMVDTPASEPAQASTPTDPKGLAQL
Test: In vitro electrophysiology assay for P2X2/3 (same protocol, 10 μM ATP agonist)
Type: cell-based
Settings: Table 3, mean current seven seconds after agonist, read-out: h P2X2/3 (pIC50 range of activity) (converted)
Recorded metric: IC50

Cc1ccc([C@@H](C)Nc2ncnc3c([S+](C)[O-])cc(-c4ccc(F)cc4)cc23)nn1 (stereo partly drawn) [Example 27]: 316 to 3160 nM
Cc1cnc(-c2cc(OCC(F)F)c3ncnc(NCc4ccc(C)nn4)c3c2)nc1 [Example 9]: 316 to 3160 nM
C[C@@H](Nc1ncnc2c(OCC(F)F)cc(-c3ccc(F)cc3)cc12)c1cnc(C(F)(F)F)nc1 [Example 2]: 316 to 3160 nM

###

Below, each entry is listed with its recorded IC50.
Target: h P2X3 (Homo sapiens, UniProt P56373)
Sequence (P56373 whole entry): as the sequence (P56373 whole entry) above
Assay: In vitro electrophysiology assay for P2X3 (automated whole-cell patch clamp, α,β-MeATP agonist)
Assay type: cell-based
Details: Table 2; 800 nM α,β-MeATP, peak current; read-out: h P2X3 (pIC50 range of activity) (converted)
Recorded metric: IC50

Cc1cnc(-c2cc(OCC(=O)NS(=O)(=O)c3ccccc3)c3ncnc(NCc4ccc(C)nn4)c3c2)nc1: < 316 nM
Cc1nnc(C(C)Nc2ncnc3c(OCC(F)F)cc(-c4ccc(F)cn4)cc23)s1 (single isomer, unassigned; enantiomer 2) [Example 7]: 3160 to 31600 nM
Cc1ccc([C@@H](C)Nc2ncnc3c([S+](C)[O-])cc(-c4ccc(F)cc4)cc23)nn1 (stereo partly shown): < 316 nM
CSc1cc(-c2ccc(F)cc2)cc2c(N[C@H](C)c3ccc(C)nn3)ncnc12: 316 to 3160 nM
C[C@@H](Nc1ncnc2c(OCC3(O)COC3)cc(-c3ccc(F)cc3)cc12)c1cnc(C(F)(F)F)nc1: < 316 nM
C[C@@H](Nc1ncnc2c(OCC(=O)NS(=O)(=O)c3ccccc3)cc(-c3ccc(F)cc3)cc12)c1cnc(C(F)(F)F)nc1: < 316 nM
C[C@@H](Nc1ncnc2c(OC3CCNC3=O)cc(-c3ccc(F)cc3)cc12)c1cnc(C(F)(F)F)nc1 (stereo partly shown): < 316 nM

###

Molecular target: h P2X3 (Homo sapiens)
Assay: In vitro electrophysiology assay for P2X3 (automated whole-cell patch clamp, α,β-MeATP agonist)
Format: cell-based
Settings: Table 2; 800 nM α,β-MeATP, peak current; read-out: h P2X3 (pIC50 range of activity) (converted)
Below, each entry is listed with its recorded IC50.
Recorded metric: IC50

CC(=O)N1CC[C@@H](Oc2cc(-c3ccc(F)cc3)cc3c(N[C@H](C)c4cnc(C(F)(F)F)nc4)ncnc23)C1 [Example 30]: 0.316 to 3.16 µM
Cc1ccc(CNc2ncnc3c(OCC(F)F)cc(-c4ccc(F)cn4)cc23)nn1 [Example 4]: 0.316 to 3.16 µM
CCOC(=O)[C@H]1CCC[C@H]1NC(=O)COc1cc(-c2ccc(F)cc2)cc2c(NCc3ccc(C)nn3)ncnc12 [Example 46]: 0.316 to 3.16 µM
CC(=O)N[C@H]1CC[C@@H](Oc2cc(-c3ccc(F)cc3)cc3c(N[C@H](C)c4cnc(C(F)(F)F)nc4)ncnc23)CC1 [Example 32]: 0.316 to 3.16 µM
Cc1ccc([C@@H](C)Nc2ncnc3c(S(=O)(=O)N(C)C)cc(-c4ccc(F)cc4)cc23)nn1 [Example 13]: < 0.316 µM
Cc1ccc(CNc2ncnc3c(OCc4noc(C)n4)cc(-c4ccc(F)cc4)cc23)nn1 [Example 58]: < 0.316 µM
COC(=O)N1CCC(COc2cc(-c3ccc(F)cc3)cc3c(NCc4ccc(C)nn4)ncnc23)C1 (centres unmarked) [Example 67]: 0.316 to 3.16 µM
Cc1ccc(CNc2ncnc3c(OCc4nnc(C5CC5)o4)cc(-c4ccc(F)cc4)cc23)nn1 [Example 62]: < 0.316 µM

Every entry's value here was drawn from patent US20240025880A1.
